The values you see were collected from patent US7687609B2.

# Tested On: Galectin-9N (Homo sapiens, UniProt O00182)
# Construct: N and C respectively represent N-terminal side carbohydrate-recognition domain and C-terminal side carbohydrate-recognition domain; made in house
# Sequence (O00182 17-148 limits assumed): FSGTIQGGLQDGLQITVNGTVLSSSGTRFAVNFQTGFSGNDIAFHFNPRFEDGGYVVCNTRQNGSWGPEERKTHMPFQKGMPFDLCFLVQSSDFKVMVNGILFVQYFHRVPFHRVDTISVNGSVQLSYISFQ
# Protocol Summary: FAC affinity test on galectin-immobilized column
# Format: binding
# Condition Info: pyridyl-aminated carbohydrate; galectin-9N immobilized 3.6 mg/ml; less than 5 μl = below interaction detection limit
Readout: V − V0 Value (µL)
// return numeric value only (unit: µL, not printed)

[ask] Please report the recorded V − V0 Value for CC(=O)N[C@H]1[C@H](O[C@H]2[C@H](O)[C@@H](O)[C@H](O[C@H]3[C@@H](O)[C@@H](CO)O[C@@H](O[C@H]4[C@H](O)[C@@H](O)[C@H](O[C@H]5[C@@H](O)[C@@H](CO)O[C@@H](O[C@H]6[C@H](O)[C@@H](O)[C@H](O[C@H]7[C@@H](O)[C@@H](CO)OC(O)[C@@H]7NC(C)=O)O[C@@H]6C(=O)O)[C@@H]5NC(C)=O)O[C@@H]4C(=O)O)[C@@H]3NC(C)=O)O[C@@H]2C(=O)O)O[C@H](CO)[C@H](O)[C@@H]1O (stereo partly drawn) [CH7, (GalNAc β1-4 GlcA β1-3)3 GalNAc] .
[reply] 146.4
